Target: ACAT (Rattus norvegicus)
Sequence (Q7TQM4 1-524): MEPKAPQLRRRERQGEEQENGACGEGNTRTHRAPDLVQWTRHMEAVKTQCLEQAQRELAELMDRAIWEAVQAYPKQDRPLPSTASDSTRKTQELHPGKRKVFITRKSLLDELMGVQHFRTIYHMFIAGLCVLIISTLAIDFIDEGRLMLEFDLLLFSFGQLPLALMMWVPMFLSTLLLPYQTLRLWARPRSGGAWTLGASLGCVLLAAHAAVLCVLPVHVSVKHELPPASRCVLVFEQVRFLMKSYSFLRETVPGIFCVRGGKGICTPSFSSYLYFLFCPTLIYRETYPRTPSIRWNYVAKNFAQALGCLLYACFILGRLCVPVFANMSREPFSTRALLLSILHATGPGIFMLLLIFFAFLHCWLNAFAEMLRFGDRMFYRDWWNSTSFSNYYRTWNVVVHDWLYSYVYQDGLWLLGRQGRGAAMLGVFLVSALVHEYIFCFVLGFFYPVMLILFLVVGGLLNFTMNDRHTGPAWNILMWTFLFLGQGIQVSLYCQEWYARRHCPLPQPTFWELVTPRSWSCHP
propertyName: IC50 (nM)
Give just the number in nM; leave the unit off.

**Query** Field request: IC50 | item: `CCCCCCN(CCCC(=O)Nc1c(OC)nc(SC)nc1N(CC)CC)c1ccccc1`
**Result** 87

**Query** Also need `CCCN(CCCC(=O)Nc1c(SC)nc(C)nc1N(C)C)c1ccccc1` , thanks.
**Result** 130

**Query** Also need `CCCCN(CCCC)c1nc(C)nc(S)c1NC(=O)CCCN(CCC)c1ccccc1` , thanks.
**Result** 110

**Query** Also need `CCCN(CCCC(=O)Nc1c(OCc2ccccc2)nc(C)nc1C(C)C)c1ccccc1` , thanks.
**Result** 100

**Query** Also need `CCCN(CCCC(=O)Nc1c(SC)nc(C)nc1N(CC)CC)c1ccc(F)cc1F` , thanks.
**Result** 76

**Query** Also need `CCCCCCN(CCCC(=O)Nc1c(OC)nc(C)nc1N(CC)CC)c1ccccc1` , thanks.
**Result** 81

**Query** Also need `CCCCCCN(CCCC(=O)Nc1c(SC)nc(C)nc1N(CC)CC)c1ccccc1OC` , thanks.
**Result** 73

**Query** Also need `CCCCc1ccc(N(CCC)CCCC(=O)Nc2c(SC)nc(C)nc2N(CC)CC)cc1` , thanks.
**Result** 83

**Query** Also need `CCCN(CCCC(=O)Nc1c(S)nc(C)nc1N(CCC)c1ccccc1)c1ccccc1` , thanks.
**Result** 80

**Query** Also need `CCCCCCN(CCCC(=O)Nc1c(OC)nc(C)nc1N(CCC)CCC)c1ccccc1` , thanks.
**Result** 43

**Query** Also need `CCCN(CCCCC(=O)Nc1c(SC)nc(C)nc1N(CC)Cc1ccccc1)c1ccccc1` , thanks.
**Result** 32

**Query** Also need `CCCCN(CCCC)c1ncnc(SC)c1NC(=O)CCCCN(CCC)c1ccccc1` , thanks.
**Result** 9.6

**Query** Also need `CCCCCCN(CCCC(=O)Nc1c(SC)nc(C)nc1N(CC)CC)c1ccccc1` , thanks.
**Result** 19

**Query** Also need `CCCCCCN(CCCC(=O)Nc1c(SC)nc(C)nc1N(CCCC)CCCC)c1ccccc1` , thanks.
**Result** 110

**Query** Also need `CCCCN(CCCC)c1nc(C)nc(SC)c1NC(=O)CCCCN(CCC)c1ccccc1` , thanks.
**Result** 16

**Query** Also need `CCCN(CCCC(=O)Nc1c(SCc2ccccc2)nc(C)nc1N(CC)CC)c1ccccc1` , thanks.
**Result** 76

**Query** Also need `CCCN(CCCCC(=O)Nc1c(SC)nc(C)nc1N(CCC)CCC)c1ccccc1` , thanks.
**Result** 14

**Query** Also need `CCCCN(CCCC)c1nc(C)nc(SC)c1NC(=O)CCCN(CCC)c1ccccc1` , thanks.
**Result** 29

**Query** Also need `CCN(CC)c1nc(C)nc(SC)c1NC(=O)CCCN(C)c1ccccc1` , thanks.
**Result** 220

**Query** Also need `CCCCCCN(CCCC(=O)Nc1c(S)nc(C)nc1N(CC)CC)c1ccccc1` , thanks.
**Result** 88

**Query** Also need `CCCN(CCCCC(=O)Nc1c(S)nc(C)nc1N(CC)CC)c1ccccc1` , thanks.
**Result** 47
